- experimental target: human TLR8 (Homo sapiens)
- Sequence (Q9NR97 27-1041): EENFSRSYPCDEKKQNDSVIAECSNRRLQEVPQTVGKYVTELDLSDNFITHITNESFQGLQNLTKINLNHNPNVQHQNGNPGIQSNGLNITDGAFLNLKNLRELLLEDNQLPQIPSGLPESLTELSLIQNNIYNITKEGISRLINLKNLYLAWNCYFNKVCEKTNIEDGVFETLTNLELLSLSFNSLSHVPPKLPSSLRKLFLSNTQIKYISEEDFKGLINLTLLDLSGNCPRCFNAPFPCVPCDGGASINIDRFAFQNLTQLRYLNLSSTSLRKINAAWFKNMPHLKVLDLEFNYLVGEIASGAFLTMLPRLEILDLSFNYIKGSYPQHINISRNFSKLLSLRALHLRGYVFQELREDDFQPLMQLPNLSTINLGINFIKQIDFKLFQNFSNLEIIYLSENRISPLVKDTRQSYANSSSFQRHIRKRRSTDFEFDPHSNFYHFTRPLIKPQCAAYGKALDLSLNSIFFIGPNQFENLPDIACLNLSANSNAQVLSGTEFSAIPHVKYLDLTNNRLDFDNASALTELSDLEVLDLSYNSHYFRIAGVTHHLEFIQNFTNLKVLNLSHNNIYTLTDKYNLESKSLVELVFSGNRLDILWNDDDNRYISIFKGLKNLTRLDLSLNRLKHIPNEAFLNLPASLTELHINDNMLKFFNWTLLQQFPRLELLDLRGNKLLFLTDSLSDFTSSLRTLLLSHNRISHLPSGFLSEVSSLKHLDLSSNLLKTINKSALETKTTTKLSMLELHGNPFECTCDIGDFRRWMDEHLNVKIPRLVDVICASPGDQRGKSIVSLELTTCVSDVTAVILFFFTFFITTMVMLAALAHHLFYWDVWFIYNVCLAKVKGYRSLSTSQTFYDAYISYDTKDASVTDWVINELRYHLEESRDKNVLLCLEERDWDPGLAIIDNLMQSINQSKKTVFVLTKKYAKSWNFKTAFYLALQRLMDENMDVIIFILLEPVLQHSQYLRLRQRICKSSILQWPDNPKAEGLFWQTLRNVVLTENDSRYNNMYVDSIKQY
- measurement protocol: HEK293-Blue-hTLR-8 cells assay (SEAP reporter, R848 stimulation)
- test settings: HEK293-Blue-hTLR8 cells, R848, 20 hrs; read-out: HEK/hTLR8 IC50
Record form. Attribute: pIC50. Fill in for each entry.
Numbers only, as −log10 of the molar value.

In the examples that follow, each entry is paired with its recorded pIC50.
compound: [2H]c1ccc2c(N3C[C@H](CN4CC(c5cnc(N6C[C@@H](N)[C@H](OC)C6)cc5C)C4)O[C@H](C)C3)ccc(C#N)c2n1
assay endpoint: pIC50
observed measurement: 7.85

compound: Cc1cc(N2CCN(C[C@H]3CN(c4ccc(C#N)c5ncccc45)C[C@@H](C)O3)CC2)nc(NC2CNCC2C#N)n1 (some centres unmarked)
assay endpoint: pIC50
observed measurement: 8.40

compound: C[C@@H]1CN(c2cc(=O)n(C)c3ncccc23)C[C@H](CN2CC(c3ccc(N4CC5(CN(C)C5)C4)cc3)C2)O1
assay endpoint: pIC50
observed measurement: 7.11

compound: C[C@@H]1CN(c2ccc(C#N)c3ncccc23)C[C@H](CN2CCN(c3cccc(N[C@H]4CNC[C@H]4F)n3)CC2)O1
assay endpoint: pIC50
observed measurement: 7.52

compound: C[C@@H]1CN(c2ccc(C#N)c3ncccc23)C[C@H](CN2CCN(c3nc(N4CCNCC4)ncc3C#N)CC2)O1
assay endpoint: pIC50
observed measurement: 8.52

compound: C[C@@H]1CN(c2ccc(C#N)c3ncccc23)C[C@H](CN2CCN(c3nc(N4CCNCC4)nc4ccccc34)CC2)O1
assay endpoint: pIC50
observed measurement: 8.00

compound: C[C@@H]1CN(c2ccc(C#N)n3ncc(F)c23)C[C@H](CN2CCN(c3ccc(N[C@H]4CNC[C@H]4F)nc3)CC2)O1
assay endpoint: pIC50
observed measurement: 7.47

compound: C[C@@H]1CN(c2cc(=O)n(C)c3ncccc23)C[C@H](CN2CC(c3ccc(N4CC(F)[C@H](N)C4)cc3)C2)O1 (stereo in doubt)
assay endpoint: pIC50
observed measurement: 6.80

compound: Cc1cc(N2CCN(C[C@H]3CN(c4ccc(C#N)c5nccnc45)C[C@@H](C)O3)CC2)nc(N2CCNCC2)n1
assay endpoint: pIC50
observed measurement: 8.70

compound: C[C@@H]1CN(c2ccc(C#N)c3ncccc23)C[C@H](CN2CCN(c3cc(N4CCNCC4)ncn3)CC2)O1
assay endpoint: pIC50
observed measurement: 8.22

For every item in the list below, what is its measured pIC50?
1. Cc1ccc(N2C[C@H](CN3CCN(c4ccnc(N5CC(N)C5)n4)CC3)O[C@H](C)C2)c2nccnc12
2. C[C@@H]1CN(c2ccc(C#N)c3ncccc23)C[C@H](CN2CCN(c3ccnc(OCCN(C)C)n3)CC2)O1
3. Cc1cnc(N2CCN(C[C@H]3CN(c4ccc(C#N)c5ncccc45)C[C@@H](C)O3)CC2)nc1N1CCNCC1
4. C[C@@H]1CN(c2ccc(C#N)n3ncc(F)c23)C[C@H](CN2CC(c3ccc(N4C[C@@H]5C[C@H]4CN5)nc3)C2)O1
5. CO[C@H]1CN(c2cc(C)nc(N3CCN(C[C@H]4CN(c5ccc(C#N)c6nccnc56)C[C@@H](C)O4)CC3)n2)C[C@H]1N
6. [2H]c1ccc2c(N3C[C@H](CN4CC(c5cccc(N6CC(C)(N)C6)n5)C4)O[C@H](C)C3)ccc(C#N)c2n1

[8.10, 8.22, 8.70, 7.04, 9.00, 7.28]

For every item in the list below, what is its measured pIC50?
1. C[C@@H]1CN(c2cc(=O)n(C)c3ncccc23)C[C@H](CN2CC(c3ccc(N4CCNCC4)cc3)C2)O1
2. C[C@@H]1CN(c2ccc(C#N)c3nccnc23)C[C@H](CN2CCN(c3nccc(N4CC(N)C4)n3)CC2)O1
3. CO[C@@H]1CN(c2ccc(C3CN(C[C@H]4CN(c5ccc(C#N)n6ncc(F)c56)C[C@@H](C)O4)C3)cn2)C[C@H]1N
4. [2H]c1ccc2c(N3C[C@H](CN4CCN(c5ncc(N6C[C@@H](N)[C@H](OC)C6)cc5C)CC4)O[C@H](C)C3)ccc(C#N)c2n1
5. CO[C@@H]1CN(c2ccc(N3CCN(C[C@H]4CN(c5ccc(C#N)n6ncc(F)c56)C[C@@H](C)O4)CC3)cn2)C[C@H]1N
6. C[C@@H]1CN(c2ccc(C#N)c3ncccc23)C[C@H](CN2CCN(c3ncc(N4CCNCC4)cn3)CC2)O1

[6.89, 9.00, 7.52, 7.77, 7.51, 8.22]

For every item in the list below, what is its measured pIC50?
1. CO[C@H]1CN(c2nccc(N3CCN(C[C@H]4CN(c5ccc(C#N)c6ncccc56)C[C@@H](C)O4)CC3)n2)C[C@@H]1N
2. C[C@@H]1CN(c2ccc(C#N)c3ncccc23)C[C@H](CN2CCN(c3cccc(N4CC(N)C(F)C4)n3)CC2)O1 (some centres unmarked)
3. C[C@@H]1CN(c2ccc(C#N)c3ncccc23)C[C@H](CN2CCN(c3ccc(N4CCNCC4)nc3)CC2)O1
4. [2H]c1ccc2c(N3C[C@H](CN4CCN(c5ccc(N6CC(C)(N)C6)c(C)n5)CC4)O[C@H](C)C3)ccc(C#N)c2n1

1. 8.52
2. 7.77
3. 8.30
4. 7.96

* * *

Record form. Attribute: IC50. Fill in for each entry.
- experimental target: hTLR9 (Homo sapiens)
- Sequence (Q9NR96 26-1032): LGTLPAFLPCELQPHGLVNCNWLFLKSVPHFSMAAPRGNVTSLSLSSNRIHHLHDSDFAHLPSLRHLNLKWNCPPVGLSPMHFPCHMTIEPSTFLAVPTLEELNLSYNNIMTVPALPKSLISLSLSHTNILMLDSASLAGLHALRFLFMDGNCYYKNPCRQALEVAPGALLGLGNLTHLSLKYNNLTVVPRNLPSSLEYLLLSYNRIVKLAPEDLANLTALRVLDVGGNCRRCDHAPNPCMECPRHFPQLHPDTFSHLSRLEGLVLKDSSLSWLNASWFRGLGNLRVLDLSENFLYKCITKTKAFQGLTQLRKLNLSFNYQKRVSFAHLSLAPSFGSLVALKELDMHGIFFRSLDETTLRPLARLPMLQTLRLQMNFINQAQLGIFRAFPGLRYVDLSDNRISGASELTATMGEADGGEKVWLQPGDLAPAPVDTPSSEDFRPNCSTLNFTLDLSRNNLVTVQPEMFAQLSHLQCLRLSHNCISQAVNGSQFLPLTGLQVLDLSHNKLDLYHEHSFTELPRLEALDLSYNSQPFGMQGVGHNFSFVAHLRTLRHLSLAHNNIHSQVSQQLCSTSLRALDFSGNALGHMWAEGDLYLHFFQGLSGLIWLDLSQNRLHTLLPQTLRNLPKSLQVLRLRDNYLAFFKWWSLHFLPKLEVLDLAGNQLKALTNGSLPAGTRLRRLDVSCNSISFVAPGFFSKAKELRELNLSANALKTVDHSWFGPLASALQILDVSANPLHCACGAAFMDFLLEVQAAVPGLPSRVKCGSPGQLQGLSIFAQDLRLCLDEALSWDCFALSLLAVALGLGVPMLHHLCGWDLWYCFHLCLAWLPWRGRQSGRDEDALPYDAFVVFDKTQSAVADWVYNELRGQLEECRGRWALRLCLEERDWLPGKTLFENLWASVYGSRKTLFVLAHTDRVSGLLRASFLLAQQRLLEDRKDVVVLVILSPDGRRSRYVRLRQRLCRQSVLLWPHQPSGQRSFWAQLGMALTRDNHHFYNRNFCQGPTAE
- measurement protocol: HEK293-Blue-hTLR-9 cells assay (SEAP reporter, ODN2006 stimulation)
- Assay type: cell-based
- Parameters: host or cells: HEK293 (HEK-Blue hTLR9)
- test settings: HEK293-Blue-hTLR9 cells, ODN2006, 20 hrs; read-out: HEK/hTLR9 IC50
Give bare numbers, in nM.

In the examples that follow, each entry is paired with its recorded IC50.
smiles structure: [2H]c1ccc2c(N3C[C@H](CN4CC(c5cnc(N6CC(C)(N)C6)cc5C)C4)O[C@H](C)C3)ccc(C#N)c2n1
experimental target: hTLR9 (Homo sapiens)
unit label: nM
IC50: 31
//
smiles structure: C[C@@H]1CN(c2ccc(C#N)c3ncccc23)C[C@H](CN2CCN(c3ncc(C#N)c(N4CCNCC4)n3)CC2)O1
experimental target: hTLR9 (Homo sapiens)
unit label: nM
IC50: 121
//
smiles structure: C[C@@H]1CN(c2ccc(C#N)n3ncc(F)c23)C[C@H](CN2CCN(c3ccc(N4C[C@H]5NCCO[C@@H]5C4)nc3)CC2)O1
experimental target: hTLR9 (Homo sapiens)
unit label: nM
IC50: 116

For every item in the list below, what is its measured IC50?
1. [2H]c1ccc2c(N3C[C@H](CN4CC(c5ccc(N6C[C@H](OC)[C@@H](N)C6)cc5)C4)O[C@H](C)C3)ccc(C#N)c2n1
2. C[C@@H]1CN(c2ccc(C#N)c3ncccc23)C[C@H](CN2CCN(c3ccc(N4CCNCC4)nc3)CC2)O1
3. Cc1cc(N2CCNCC2)nc(N2CCN(C[C@H]3CN(c4ccc(C#N)c5nccnc45)C[C@@H](C)O3)CC2)n1
4. COc1cnc(N2CCNCC2)nc1N1CCN(C[C@H]2CN(c3ccc(C#N)c4ncccc34)C[C@@H](C)O2)CC1
5. CO[C@H]1CN(c2nc(C)cc(N3CCN(C[C@H]4CN(c5ccc(C#N)c6nccnc56)C[C@@H](C)O4)CC3)n2)C[C@@H]1N
6. C[C@@H]1CN(c2ccc(C#N)c3ncccc23)C[C@H](CN2CCN(c3ccnc(N4C[C@@H](N)[C@@H](F)C4)n3)CC2)O1

1. 162
2. 142
3. 62
4. 121
5. 46
6. 31

For every item in the list below, what is its measured IC50?
1. Cc1cc(N2CCN(C[C@H]3CN(c4ccc(C#N)c5ncccc45)C[C@@H](C)O3)CC2)nc(N2CC3(CNCCO3)C2)n1
2. [2H]c1ccc2c(N3C[C@H](CN4CCN(c5nc(C)cc(N6C[C@@H](N)[C@H](OC)C6)n5)CC4)O[C@H](C)C3)ccc(C#N)c2n1

1: 32; 2: 31

For every item in the list below, what is its measured IC50?
1. CO[C@@H]1CN(c2ccc(N3CCN(C[C@H]4CN(c5ccc(C#N)n6ncc(F)c56)C[C@@H](C)O4)CC3)cn2)C[C@H]1N
2. C[C@@H]1CN(c2ccc(C#N)n3ncc(F)c23)C[C@H](CN2CCN(c3ccc(N4CC5(CCN5)C4)nc3)CC2)O1

[46, 157]
